tested on: NCI-H211 tumor spheroids, viability percent test/control; assay: Anticancer human tumor NCI-H211 cell line growth inhibition; conditions: second compound 1 µM; first compound 3.16 µM; stronger effect = lower value; spheroids with HUVEC and MSC;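 also: spheroids exposed to agents for seven days before readout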
Kindly supply the reported viability, T/C values for the records listed here.
Give bare numbers, in %.

molecule: COc1cc(C)[nH]c(=O)c1CN1CCc2c(Cl)cc(C(OC)C3COC3)c(Cl)c2C1=O (stereo unspecified) + Cn1nnc2c(C(N)=O)ncn2c1=O
units_text: %
viability, T/C: 81.3

Please state, for each entry, its recorded viability, T/C.
1. Cc1cc(C)c(CNC(=O)c2cc(-c3ccc(CN4CCOCC4)cc3)cc3c2cnn3C2CCCC2)c(=O)[nH]1 + Cn1nnc2c(C(N)=O)ncn2c1=O
2. CC(C)n1c(=O)n(C)c2cnc3cc(F)c(-c4ccc(OCCCN5CCCCC5)nc4)cc3c21 + Cn1nnc2c(C(N)=O)ncn2c1=O
3. CC1COCCN1c1cc(-c2ccnn2C)c2ccnc(-c3ccn[nH]3)c2n1 (stereo unspecified) + Cn1nnc2c(C(N)=O)ncn2c1=O

Reply text:
72.7
28.4
0.72

Please state, for each entry, its recorded viability, T/C.
1. COc1ccc([C@@H](O)c2cc(-c3ncnc4cc(N5CCOCC5)ccc34)c(F)cc2Cl)nn1 + Cn1nnc2c(C(N)=O)ncn2c1=O
2. [2H]c1nc(C)nc([2H])c1-c1cc(NC[C@@H](C)c2cccc3c(C(=O)NC)ccnc23)ncn1 + Cn1nnc2c(C(N)=O)ncn2c1=O

Reply text:
85.3
101

###

test system: NCI-H211 tumor spheroids, viability percent test/control; assay: Anticancer human tumor NCI-H211 cell line growth inhibition; details: curve of first compound; second compound 1 µM; spheroids with HUVEC and MSC;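 also: spheroids exposed to agents for seven days before readout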
Kindly supply the reported pIC50 values for the records listed here.
Give bare numbers, as −log10 of the molar value.

compound: CC(C)n1c(=O)n(C)c2cnc3cc(F)c(-c4ccc(OCCCN5CCCCC5)nc4)cc3c21 + Cn1nnc2c(C(N)=O)ncn2c1=O
system: NCI-H211 tumor spheroids, viability percent test/control
pIC50: 6.18
--
compound: Cc1cc(C)c(CNC(=O)c2cc(-c3ccc(CN4CCOCC4)cc3)cc3c2cnn3C2CCCC2)c(=O)[nH]1 + Cn1nnc2c(C(N)=O)ncn2c1=O
system: NCI-H211 tumor spheroids, viability percent test/control
pIC50: 5.25

Proceeding to the next compound to report its pIC50.
Inquiry: Provide NCI-H211 tumor spheroids, viability percent test/control pIC50 reading for CNCc1ccc(-c2cc(-c3nc(-c4ccc(S(=O)(=O)C(C)C)cc4)cnc3N)on2)cc1 + Cn1nnc2c(C(N)=O)ncn2c1=O .
Reply text: 7.94

###

system: NCI-H211 tumor spheroids, viability percent test/control; assay: Anticancer human tumor NCI-H211 cell line growth inhibition; settings: second compound 3.16 µM; first compound 0.0316 µM; stronger effect = lower value; spheroids with HUVEC and MSC;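 also: spheroids exposed to agents for seven days before readout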
recorded_endpoint: viability, T/C

molecule: COc1cc(C)[nH]c(=O)c1CN1CCc2c(Cl)cc(C(OC)C3COC3)c(Cl)c2C1=O (stereo unspecified) + Cn1nnc2c(C(N)=O)ncn2c1=O
system: NCI-H211 tumor spheroids, viability percent test/control
viability, T/C: 92.6%

Please state, for each entry, its recorded viability, T/C.
1. Cc1cc(C)c(CNC(=O)c2cc(-c3ccc(CN4CCOCC4)cc3)cc3c2cnn3C2CCCC2)c(=O)[nH]1 + Cn1nnc2c(C(N)=O)ncn2c1=O
2. [2H]c1nc(C)nc([2H])c1-c1cc(NC[C@@H](C)c2cccc3c(C(=O)NC)ccnc23)ncn1 + Cn1nnc2c(C(N)=O)ncn2c1=O
3. COc1ccc([C@@H](O)c2cc(-c3ncnc4cc(N5CCOCC5)ccc34)c(F)cc2Cl)nn1 + Cn1nnc2c(C(N)=O)ncn2c1=O
4. CC(C)n1c(=O)n(C)c2cnc3cc(F)c(-c4ccc(OCCCN5CCCCC5)nc4)cc3c21 + Cn1nnc2c(C(N)=O)ncn2c1=O
5. CC1COCCN1c1cc(-c2ccnn2C)c2ccnc(-c3ccn[nH]3)c2n1 (stereo unspecified) + Cn1nnc2c(C(N)=O)ncn2c1=O

Reply text:
["95.3%", "108%", "88.9%", "66%", "9.67%"]
